Biological target: UniProt Q9AHJ8
Sequence (Q9AHJ8 1-598): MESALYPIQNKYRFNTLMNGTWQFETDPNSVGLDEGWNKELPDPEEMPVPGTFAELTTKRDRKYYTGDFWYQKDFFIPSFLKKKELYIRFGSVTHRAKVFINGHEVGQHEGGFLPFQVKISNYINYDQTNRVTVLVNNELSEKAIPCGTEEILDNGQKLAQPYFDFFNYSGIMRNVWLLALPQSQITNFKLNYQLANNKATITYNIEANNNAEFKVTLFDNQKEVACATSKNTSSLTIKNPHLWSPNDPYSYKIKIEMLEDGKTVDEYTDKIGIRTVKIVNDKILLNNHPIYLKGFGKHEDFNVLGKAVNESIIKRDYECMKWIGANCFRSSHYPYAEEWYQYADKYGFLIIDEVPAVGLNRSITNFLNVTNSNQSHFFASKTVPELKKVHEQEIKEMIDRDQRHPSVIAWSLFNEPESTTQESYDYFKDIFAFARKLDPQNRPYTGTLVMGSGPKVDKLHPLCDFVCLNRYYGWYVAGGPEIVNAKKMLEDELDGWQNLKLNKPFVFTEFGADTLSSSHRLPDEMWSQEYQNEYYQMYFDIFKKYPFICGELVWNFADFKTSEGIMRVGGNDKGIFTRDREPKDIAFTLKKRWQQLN
Assay: GUS inhibition assay, hydrolysis of 4-methylumbelliferyl-β-glucuronide, LgGUS
Type: biochemical
Details: LgGUS; 50 mM sodium acetate pH 4.5, 37 °C
// values below are reported pKi
Interpret pKi as the negative base-10 log of the concentration measured in mol/L.

compound	reported-value
CCC[C@@H]1NC[C@@H](O)[C@H](O)[C@H]1C(=O)O	4.73

I am curious: what pKi value has been reported for `CCCCCC[C@@H]1NC[C@@H](O)[C@H](O)[C@H]1C(=O)O` ?
6.07

Looking for the measured pKi of `CCCCCCCCC[C@@H]1NC[C@@H](O)[C@H](O)[C@H]1C(=O)O` , can you help?
6.57

// query pKi value for entry `O=C(O)[C@H]1CNC[C@@H](O)[C@@H]1O`
6.96

---

System: UniProtKB D2Q7B1 | Read-out: Kd
Sequence (D2Q7B1 entry or part of it): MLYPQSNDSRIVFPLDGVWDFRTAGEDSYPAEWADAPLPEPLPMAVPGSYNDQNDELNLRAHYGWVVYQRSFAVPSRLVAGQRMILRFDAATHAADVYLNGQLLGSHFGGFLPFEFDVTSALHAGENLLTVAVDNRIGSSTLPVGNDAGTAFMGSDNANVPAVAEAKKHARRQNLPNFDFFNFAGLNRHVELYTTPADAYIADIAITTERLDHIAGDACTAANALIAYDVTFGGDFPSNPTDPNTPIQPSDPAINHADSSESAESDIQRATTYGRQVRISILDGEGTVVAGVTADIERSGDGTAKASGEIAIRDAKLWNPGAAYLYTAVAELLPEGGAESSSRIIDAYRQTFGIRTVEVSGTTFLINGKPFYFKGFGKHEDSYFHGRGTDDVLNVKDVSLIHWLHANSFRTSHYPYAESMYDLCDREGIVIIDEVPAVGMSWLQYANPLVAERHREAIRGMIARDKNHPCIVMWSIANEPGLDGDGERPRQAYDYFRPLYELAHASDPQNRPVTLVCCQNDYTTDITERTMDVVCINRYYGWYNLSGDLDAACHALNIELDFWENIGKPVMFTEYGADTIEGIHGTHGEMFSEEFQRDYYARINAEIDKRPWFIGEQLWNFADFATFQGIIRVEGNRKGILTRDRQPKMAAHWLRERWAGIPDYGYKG
State just the number; it will be interpreted in µM.

compound	Kd [µM]
O=C(O)[C@H]1CNC[C@@H](O)[C@@H]1O [Inhibitor 1, Uronic isofagomine]	0.3

Continue with the compound presented below.
Report Kd for CCC[C@@H]1NC[C@@H](O)[C@H](O)[C@H]1C(=O)O [Inhibitor 2, C6-propyl UIFG] tested on UniProtKB D2Q7B1.
14.5

---

Parameter pIC50, tested on EcGUS (Escherichia coli GUS) (Escherichia coli, UniProt P05804), listed per item.
FYI, pIC50 means -log10 of a concentration in mol per litre.

compound	pIC50
CCCCCC[C@@H]1NC[C@@H](O)[C@H](O)[C@H]1CO	4.60
CCCCCCCCC[C@@H]1NC[C@@H](O)[C@H](O)[C@H]1CO	5.44

Request body: readout pIC50, system EcGUS (Escherichia coli GUS) (Escherichia coli, UniProt P05804), query `CCC[C@@H]1NC[C@@H](O)[C@H](O)[C@H]1CO` . Return the value.
3.56

---

Target: HsGUS (human GUS) (Homo sapiens, UniProt P08236)
Construct: HsGUS was prepared as described[37]; made in house
Sequence (P08236 23-651): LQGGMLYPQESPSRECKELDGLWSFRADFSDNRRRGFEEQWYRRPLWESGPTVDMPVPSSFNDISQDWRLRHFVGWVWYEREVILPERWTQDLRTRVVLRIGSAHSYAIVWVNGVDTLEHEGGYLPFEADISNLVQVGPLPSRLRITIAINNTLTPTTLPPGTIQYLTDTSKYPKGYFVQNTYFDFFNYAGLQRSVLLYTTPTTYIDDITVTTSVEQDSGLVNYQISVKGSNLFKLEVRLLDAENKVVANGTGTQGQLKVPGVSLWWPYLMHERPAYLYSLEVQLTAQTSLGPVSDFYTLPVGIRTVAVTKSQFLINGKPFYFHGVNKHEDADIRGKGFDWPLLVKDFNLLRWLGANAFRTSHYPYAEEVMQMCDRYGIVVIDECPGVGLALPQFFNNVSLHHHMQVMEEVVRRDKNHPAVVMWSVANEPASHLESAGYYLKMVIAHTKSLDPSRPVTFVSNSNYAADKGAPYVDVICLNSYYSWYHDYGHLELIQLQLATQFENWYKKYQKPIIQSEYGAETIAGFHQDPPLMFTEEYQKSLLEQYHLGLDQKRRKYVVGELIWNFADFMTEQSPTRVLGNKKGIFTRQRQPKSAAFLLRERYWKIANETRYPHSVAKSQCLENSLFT
Assay: GUS inhibition assay, hydrolysis of 4-methylumbelliferyl-β-glucuronide, HsGUS
Type: biochemical
Settings: HsGUS; 50 mM sodium acetate pH 4.5, 37 °C
measure: pKi
Remember, pKi is on a log scale: it is -log10 of the molar concentration.

compound	target-system	reported-value
O=C(O)[C@H]1CNC[C@@H](O)[C@@H]1O [Inhibitor 1, Uronic isofagomine]	HsGUS (human GUS) (Homo sapiens, UniProt P08236)	6.74
CCCCCCCCC[C@@H]1NC[C@@H](O)[C@H](O)[C@H]1C(=O)O [Inhibitor 4, C6-nonyl UIFG]	HsGUS (human GUS) (Homo sapiens, UniProt P08236)	3.98

I'm curious: which pKi was measured for CCC[C@@H]1NC[C@@H](O)[C@H](O)[C@H]1C(=O)O [Inhibitor 2, C6-propyl UIFG] tested on HsGUS (human GUS) (Homo sapiens, UniProt P08236)?
4.44

Under HsGUS (human GUS) (Homo sapiens, UniProt P08236): pKi value of CCCCCC[C@@H]1NC[C@@H](O)[C@H](O)[C@H]1C(=O)O [Inhibitor 3, C6-hexyl UIFG] ?
5.28

---

Items are presented alongside their recorded pKd.
Molecular target: EcGUS (Escherichia coli)
Sequence (P05804 whole entry): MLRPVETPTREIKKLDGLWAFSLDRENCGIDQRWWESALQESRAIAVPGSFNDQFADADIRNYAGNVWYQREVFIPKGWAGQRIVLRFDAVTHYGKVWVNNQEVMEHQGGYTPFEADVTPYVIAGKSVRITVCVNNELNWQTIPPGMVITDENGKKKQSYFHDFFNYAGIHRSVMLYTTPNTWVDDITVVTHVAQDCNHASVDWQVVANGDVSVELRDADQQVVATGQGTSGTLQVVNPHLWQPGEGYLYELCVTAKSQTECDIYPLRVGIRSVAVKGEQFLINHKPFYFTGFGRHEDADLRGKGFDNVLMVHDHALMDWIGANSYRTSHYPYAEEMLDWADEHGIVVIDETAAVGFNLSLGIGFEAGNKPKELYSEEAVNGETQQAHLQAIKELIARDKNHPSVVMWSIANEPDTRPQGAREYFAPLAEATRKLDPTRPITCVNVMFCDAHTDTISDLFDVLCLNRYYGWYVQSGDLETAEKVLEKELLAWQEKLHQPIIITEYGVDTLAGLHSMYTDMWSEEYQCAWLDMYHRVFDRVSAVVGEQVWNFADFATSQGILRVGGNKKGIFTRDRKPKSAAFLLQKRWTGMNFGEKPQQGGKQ
Test: Isothermal titration calorimetry, EcGUS
Assay type: binding
Details: EcGUS; phosphate buffer (250 mM NaCl, 20 mM KH2PO4, 100 mM Na2HPO4, pH 8.0); 298 K
API: returns pKd as number; meaning -log10 of concentration in mol/L.

// solved cases for pKd follow
molecule	measure	reported-value
CCC[C@@H]1NC[C@@H](O)[C@H](O)[C@H]1C(=O)O [Inhibitor 2, C6-propyl UIFG]	pKd	6.55
CCCCCCCCC[C@@H]1NC[C@@H](O)[C@H](O)[C@H]1C(=O)O [Inhibitor 4, C6-nonyl UIFG]	pKd	6.80
O=C(O)[C@H]1CNC[C@@H](O)[C@@H]1O [Inhibitor 1, Uronic isofagomine]	pKd	7.22

Lab note: next molecule to report on.
Give the measured pKd of CCCCCC[C@@H]1NC[C@@H](O)[C@H](O)[C@H]1C(=O)O [Inhibitor 3, C6-hexyl UIFG] .
7.52
